molecular target: Fatty-acid amide hydrolase 1 (Homo sapiens); assay: Inhibition of human recombinant FAAH overexpressed in African green monkey COS7 cells using [3H]-anandamide as substrate preincubated for 10 mins before substrate addition measured after 10 mins by liquid scintillation counting analysis; format: cell-based, COS-7; conditions: read-out: pIC50 (converted)
readout-name: IC50 (nM)
The answer is to be given in nM; state only the numeric part.

compound=COc1nn([C@H](C)c2ccc(-c3ccccc3)cc2)c(=O)o1 subject_of_test="Fatty-acid amide hydrolase 1 (Homo sapiens)" value_reported=2880
compound=COc1nn([C@@H](C)c2ccc(N(c3ccccc3)c3ccccc3)cc2)c(=O)o1 subject_of_test="Fatty-acid amide hydrolase 1 (Homo sapiens)" value_reported=100
compound=CCCCCCCCCCCC(=O)c1nc2ncccc2o1 subject_of_test="Fatty-acid amide hydrolase 1 (Homo sapiens)" value_reported=16.6
compound=COc1nn([C@H](C)c2ccc(CC(C)C)cc2)c(=O)o1 subject_of_test="Fatty-acid amide hydrolase 1 (Homo sapiens)" value_reported=245
compound=COc1nn(Cc2ccccc2Oc2ccccc2)c(=O)o1 subject_of_test="Fatty-acid amide hydrolase 1 (Homo sapiens)" value_reported=6310

Test system Fatty-acid amide hydrolase 1 (Homo sapiens); read-out IC50; what value for COc1nn([C@H](C)c2ccc(N(c3ccccc3)c3ccccc3)cc2)c(=O)o1 ?
6170

Give the reported IC50 for COc1nn(C(C)c2cccc(-c3ccccc3)c2)c(=O)o1 (stereo not given) (system: Fatty-acid amide hydrolase 1 (Homo sapiens)).
1170

Form field: IC50 recorded for COc1nn(C(C)c2cccc(Oc3ccccc3)c2)c(=O)o1 (stereo not given) with Fatty-acid amide hydrolase 1 (Homo sapiens) (enter value)
5250

Quick check: IC50 on Fatty-acid amide hydrolase 1 (Homo sapiens), item O=C(Nc1ccccc1)N1CCC(Cc2ccc3ccccc3n2)CC1 ?
324

Please provide the recorded IC50 for COc1nn(Cc2ccc(N(c3ccccc3)c3ccccc3)cc2)c(=O)o1 , tested on Fatty-acid amide hydrolase 1 (Homo sapiens).
457

Reported IC50 for Fatty-acid amide hydrolase 1 (Homo sapiens), given COc1nn(C(C)c2ccccc2)c(=O)o1 (stereo not given) ?
6030

Provide value of IC50 for this record tested with Fatty-acid amide hydrolase 1 (Homo sapiens): COc1nn([C@@H](C)c2ccc(CC(C)C)cc2)c(=O)o1
11.5

What IC50 appears in the records for this compound with Fatty-acid amide hydrolase 1 (Homo sapiens)? COc1nn(Cc2ccc(-c3ccccc3)cc2)c(=O)o1
162

Please state recorded IC50 (tested on Fatty-acid amide hydrolase 1 (Homo sapiens)) of COc1nn(C(C)c2ccc(N(c3ccccc3)c3ccccc3)cc2)c(=O)o1 (racemic)
115

Please tell me: IC50 of COc1nn(C(C)c2ccc(Oc3ccccc3)cc2)c(=O)o1 (stereo not given) , system Fatty-acid amide hydrolase 1 (Homo sapiens)?
33.9

---

Molecular target: Fatty-acid amide hydrolase 1 (Homo sapiens)
Sequence (O00519 whole entry): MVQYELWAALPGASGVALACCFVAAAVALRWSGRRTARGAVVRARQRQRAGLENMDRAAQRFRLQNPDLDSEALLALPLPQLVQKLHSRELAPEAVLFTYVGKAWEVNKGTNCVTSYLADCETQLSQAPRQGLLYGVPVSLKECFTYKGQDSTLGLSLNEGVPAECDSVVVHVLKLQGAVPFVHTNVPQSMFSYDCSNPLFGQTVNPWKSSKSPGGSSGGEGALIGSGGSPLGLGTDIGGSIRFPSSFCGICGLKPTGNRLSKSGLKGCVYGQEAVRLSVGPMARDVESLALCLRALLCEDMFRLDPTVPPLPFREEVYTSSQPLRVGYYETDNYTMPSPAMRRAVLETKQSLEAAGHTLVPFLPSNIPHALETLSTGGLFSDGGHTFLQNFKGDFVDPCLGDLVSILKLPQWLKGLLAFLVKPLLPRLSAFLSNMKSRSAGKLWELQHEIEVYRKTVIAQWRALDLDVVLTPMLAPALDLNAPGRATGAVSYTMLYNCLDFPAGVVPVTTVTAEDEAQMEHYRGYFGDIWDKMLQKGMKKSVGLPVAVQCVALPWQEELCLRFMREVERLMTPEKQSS
Assay: Inhibition of human recombinant FAAH overexpressed in African green monkey COS7 cells using [3H]-anandamide as substrate preincubated for 10 mins before substrate addition measured after 10 mins by liquid scintillation counting analysis
Type: cell-based, COS-7
Settings: read-out: pIC50 (converted)
readout-name: log10 of IC50 (log10 of the value in nM)
Units before log transform: nM; reported quantity: IC50; transform: log10.

# count of solved cases: 4
compound="COc1nn(C(C)c2ccc(CC(C)C)cc2)c(=O)o1 (racemic)" value_reported=1.36
compound=COc1nn(Cc2cccc(Oc3ccccc3)c2)c(=O)o1 value_reported=2.99
compound=COc1nn(Cc2ccc(CC(C)C)cc2)c(=O)o1 value_reported=1.95
compound=COc1nn([C@@H](C)c2ccc(-c3ccccc3)cc2)c(=O)o1 value_reported=1.37

For the compound COc1nn(C(C)c2ccc(-c3ccccc3)cc2)c(=O)o1 (racemic) , what log10 of IC50 is on record?
1.67

// lookup log10 of IC50 for COc1nn(Cc2ccc(Oc3ccccc3)cc2)c(=O)o1
2.00

---

target: Fatty-acid amide hydrolase 1 (Homo sapiens) (UniProt O00519); assay: Reversible inhibition of human recombinant FAAH overexpressed in African green monkey COS7 cells using […] as substrate assessed as recovery of enzyme activity at 20 x IC50 preincubated for 60 mins followed by 500 fold dilution measured after 10 mins by HPLC analysis; format: cell-based; details: COS-7
Calls of active or inactive are those of the source. No cut-off for these calls is given here.
Return exactly one item of active, inactive

Worked cases, answers included:
smiles_notation=O=C(Nc1ccccc1)N1CCC(Cc2ccc3ccccc3n2)CC1 subject_of_test="Fatty-acid amide hydrolase 1 (Homo sapiens) (UniProt O00519)" group=inactive
smiles_notation=CCCCCCCCCCCC(=O)c1nc2ncccc2o1 subject_of_test="Fatty-acid amide hydrolase 1 (Homo sapiens) (UniProt O00519)" group=active
smiles_notation=COc1nn([C@@H](C)c2ccc(-c3ccccc3)cc2)c(=O)o1 subject_of_test="Fatty-acid amide hydrolase 1 (Homo sapiens) (UniProt O00519)" group=active
smiles_notation=COc1nn([C@@H](C)c2ccc(N(c3ccccc3)c3ccccc3)cc2)c(=O)o1 subject_of_test="Fatty-acid amide hydrolase 1 (Homo sapiens) (UniProt O00519)" group=active

Note: attention shifts to another entry.
State the result this test recorded for COc1nn([C@@H](C)c2ccc(CC(C)C)cc2)c(=O)o1 .
active

---

The following compounds are shown together with reported IC50 values.
target: Monoglyceride lipase (Homo sapiens, UniProt Q99685); assay: Inhibition of human recombinant MAGL overexpressed in HEK cells using 2-AG as substrate preincubated for 10 mins before substrate addition measured after 10 mins by HPLC analysis; type: cell-based, HEK293; conditions: read-out: IC50
Sequence (Q99685 whole entry): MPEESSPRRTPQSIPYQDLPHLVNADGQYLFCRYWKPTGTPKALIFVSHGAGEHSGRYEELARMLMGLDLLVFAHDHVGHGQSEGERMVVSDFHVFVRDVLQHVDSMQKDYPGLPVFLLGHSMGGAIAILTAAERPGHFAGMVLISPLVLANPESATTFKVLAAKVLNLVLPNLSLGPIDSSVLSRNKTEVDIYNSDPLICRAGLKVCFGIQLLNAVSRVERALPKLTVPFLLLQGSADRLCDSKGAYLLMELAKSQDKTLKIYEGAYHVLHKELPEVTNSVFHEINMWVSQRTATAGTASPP
All answers are understood in nM, so give the number only.

Some entries whose results are on file:
compound=COc1nn(Cc2ccc(-c3ccccc3)cc2)c(=O)o1 subject_of_test="Monoglyceride lipase (Homo sapiens, UniProt Q99685)" value_reported=1600
compound="COc1nn(C(C)c2ccc(Oc3ccccc3)cc2)c(=O)o1 (stereo not drawn)" subject_of_test="Monoglyceride lipase (Homo sapiens, UniProt Q99685)" value_reported=2000
compound=COc1nn([C@H](C)c2ccc(CC(C)C)cc2)c(=O)o1 subject_of_test="Monoglyceride lipase (Homo sapiens, UniProt Q99685)" value_reported=4000
compound=COc1nn([C@H](C)c2ccc(N(c3ccccc3)c3ccccc3)cc2)c(=O)o1 subject_of_test="Monoglyceride lipase (Homo sapiens, UniProt Q99685)" value_reported=350
compound="COc1nn(C(C)c2ccc(N(c3ccccc3)c3ccccc3)cc2)c(=O)o1 (racemic)" subject_of_test="Monoglyceride lipase (Homo sapiens, UniProt Q99685)" value_reported=630

Need IC50 of COc1nn(Cc2ccc(Oc3ccccc3)cc2)c(=O)o1 , thanks.
400

Field request: IC50 | item: COc1nn(Cc2ccc(CC(C)C)cc2)c(=O)o1
1300

# input compound: COc1nn(Cc2ccc(N(c3ccccc3)c3ccccc3)cc2)c(=O)o1 ; wanted: its IC50
260

---

Molecular target: Fatty-acid amide hydrolase 1 (Homo sapiens, UniProt O00519)
Sequence (O00519 whole entry): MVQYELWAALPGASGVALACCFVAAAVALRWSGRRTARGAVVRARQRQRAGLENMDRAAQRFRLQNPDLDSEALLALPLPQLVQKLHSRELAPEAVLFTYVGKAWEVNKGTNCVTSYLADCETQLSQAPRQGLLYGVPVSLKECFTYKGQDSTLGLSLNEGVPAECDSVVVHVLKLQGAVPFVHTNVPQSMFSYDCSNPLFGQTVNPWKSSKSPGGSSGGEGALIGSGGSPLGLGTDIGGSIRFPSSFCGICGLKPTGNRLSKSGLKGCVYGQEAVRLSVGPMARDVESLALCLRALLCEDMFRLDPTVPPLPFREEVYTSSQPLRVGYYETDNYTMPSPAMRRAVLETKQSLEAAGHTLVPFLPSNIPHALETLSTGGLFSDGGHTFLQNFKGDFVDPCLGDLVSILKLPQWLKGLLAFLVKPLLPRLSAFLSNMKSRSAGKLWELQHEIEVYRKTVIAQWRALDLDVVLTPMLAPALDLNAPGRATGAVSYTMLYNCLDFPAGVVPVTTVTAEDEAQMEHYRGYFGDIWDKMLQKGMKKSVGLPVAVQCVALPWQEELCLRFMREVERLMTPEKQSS
Experiment: Inhibition of human recombinant FAAH overexpressed in African green monkey COS7 cells using [3H]-anandamide as substrate preincubated for 10 mins before substrate addition measured after 10 mins by liquid scintillation counting analysis
Type: cell-based, COS-7
Conditions: cos-7; read-out: IC50
readout-name: pIC50
On this scale, pIC50 is minus log10 of a concentration expressed in M (mol/L).

Form entry - test system: Fatty-acid amide hydrolase 1 (Homo sapiens, UniProt O00519); read-out: pIC50; molecule: COc1nn(Cc2ccc(Oc3ccccc3)cc2)c(=O)o1
7.00
